Molecular target: SARS-CoV-2 S ectodomain trimer, prefusion-stabilized, 2P variant (Wrapp et al., 2020) (SARS-CoV-2, Wuhan-Hu-1, UniProt P0DTC2, stabilised)
VALUE_TYPE: binding result

INSERT INTO measurements (binder, value_type, value_reported) VALUES
  ('C7A2 (antibody, V domains shown) VH: EVQLLESGGGLVQPGGSLRLSCAASGFIFSNYVVSWVRQAPGKGLEWVSGISVNGDTTFYADSVKGRFTISRDNSKNTLYLQMNSLRAEDTAVYYCAKVRGYCSGGRGCMDVWGQGTTVTVSS VL: DIQLTQSPSSLSASVGDRVTITCQASQDIGNTLAWYQQKPGKAPNLLIYDASSLQSGVPSRFSGSVSGTDFTLTITSLQLEDFATYYCQQFNTYPALTFGGGTKVEIK', 'binding result', 'binds'),
  ('C93E12 (antibody, V domains shown) VH: QVQLVEAGGGVVQPGTSLRLSCAASGFTFSNYAIQWVRQAPGKGPEWVALISYDGSNKYYADPVKGRFTLSRDNSKNTLYLQMNSLRAEDTAVYYCARGIRGGYNDAFDIWGQGTMVTVSS VL: DIQLTQSPSFLSASVGDRVTITCRASQGISSYLTWYQQKPGKAPKLLIYAASTLQSGVPSRFSGSGSGTEFTLTISSLQPEDFATYYCQQVTSYPITFGQGTRLEIK', 'binding result', 'binds'),
  ('C81E3 (antibody, V domains shown) VH: QVQLVESGGGVVQPGRSLRLSCAASGFTFSSYAMHWVRQAPGKGLEWVAVISYDGSNKYYADSVKGRFTISRDNSKNTLYLQMNSLRAEDTAVYYCARVSSMDVLRYFDPLDVWGNGTTVTVSS VL: SYELTQPPSVSVSPGQTARITCSGDALPKQYAYWYQQKPGQAPVLVIYKDSERPSGIPERFSGSSSGTTVTLTISGVQAEDEADYYCQSADSSGTYHVVFGGGTKLTVL', 'binding result', 'binds');
